Target: T1, APJ receptor (human, UniProt P35414 1-380)
T1 sequence (looked up): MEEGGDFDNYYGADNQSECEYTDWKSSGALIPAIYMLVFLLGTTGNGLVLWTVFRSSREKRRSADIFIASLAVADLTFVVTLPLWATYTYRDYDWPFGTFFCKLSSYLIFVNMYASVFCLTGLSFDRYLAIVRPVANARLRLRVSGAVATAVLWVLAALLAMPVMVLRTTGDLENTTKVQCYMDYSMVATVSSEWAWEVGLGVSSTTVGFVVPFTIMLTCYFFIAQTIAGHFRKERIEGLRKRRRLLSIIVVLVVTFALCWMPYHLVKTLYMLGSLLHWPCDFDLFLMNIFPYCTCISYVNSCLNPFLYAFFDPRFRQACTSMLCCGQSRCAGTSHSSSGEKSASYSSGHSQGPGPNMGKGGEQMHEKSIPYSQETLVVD
Assay: cell-based or functional assay
[ ]: non-standard residue; d: D form. pGlu = O=C1CC[C@@H](C(=O)O)N1; dNle = CCCC[C@@H](N)C(=O)O; dNva = CCC[C@@H](N)C(=O)O
One threshold, 60 nM, splits the recorded hAPJ Ca^2+ Flux EC50 values: lower ones are met, equal or higher ones are not met.

Previously resolved entries follow.
binder: [pGlu]RPRL[dA]HKGP[dNle][dA][dY]-OH (SMILES CCCC[C@@H](NC(=O)[C@@H]1CCCN1C(=O)CNC(=O)[C@H](CCCCN)NC(=O)[C@H](Cc1c[nH]cn1)NC(=O)[C@@H](C)NC(=O)[C@H](CC(C)C)NC(=O)[C@H](CCCNC(=N)N)NC(=O)[C@@H]1CCCN1C(=O)[C@H](CCCNC(=N)N)NC(=O)[C@@H]1CCC(=O)N1)C(=O)N[C@H](C)C(=O)N[C@H](Cc1ccc(O)cc1)C(=O)O) [pE-R-P-R-L-a-H-K-G-P-nle-a-y-OH]
discreteLabel: met

binder: ERPRLAHKGPLF (pE at 1; D-Ala at 6; D-Nle at 11; D-Phe at 12) [pE-R-P-R-L-a-H-K-G-P-nle-f-OH]
discreteLabel: met

Is the reported hAPJ Ca^2+ Flux EC50 for ERPRLAHKGPLAX (pE at 1; D-Ala at 6; D-Nle at 11; D-Ala at 12; D-Tic at 13) [pE-R-P-R-L-a-H-K-G-P-nle-a-tic-OH] strictly below 60 nM?
met

Try this binder too: [pGlu]RPRL[dA]HEGP[dNle][dA][dF]-OH (SMILES CCCC[C@@H](NC(=O)[C@@H]1CCCN1C(=O)CNC(=O)[C@H](CCC(=O)O)NC(=O)[C@H](Cc1c[nH]cn1)NC(=O)[C@@H](C)NC(=O)[C@H](CC(C)C)NC(=O)[C@H](CCCNC(=N)N)NC(=O)[C@@H]1CCCN1C(=O)[C@H](CCCNC(=N)N)NC(=O)[C@@H]1CCC(=O)N1)C(=O)N[C@H](C)C(=O)N[C@H](Cc1ccccc1)C(=O)O) [pE-R-P-R-L-a-H-E-G-P-nle-a-f-OH]
not met

Try this binder too: [pGlu]RPRL[dA]HKGP[dNva][dA][dF]-OH (SMILES CCC[C@@H](NC(=O)[C@@H]1CCCN1C(=O)CNC(=O)[C@H](CCCCN)NC(=O)[C@H](Cc1c[nH]cn1)NC(=O)[C@@H](C)NC(=O)[C@H](CC(C)C)NC(=O)[C@H](CCCNC(=N)N)NC(=O)[C@@H]1CCCN1C(=O)[C@H](CCCNC(=N)N)NC(=O)[C@@H]1CCC(=O)N1)C(=O)N[C@H](C)C(=O)N[C@H](Cc1ccccc1)C(=O)O) [pE-R-P-R-L-a-H-K-G-P-nva-a-f-OH]
met

Try this binder too: [pGlu]RPRY[dA]HKGP[dNle][dA][dF]-OH (SMILES CCCC[C@@H](NC(=O)[C@@H]1CCCN1C(=O)CNC(=O)[C@H](CCCCN)NC(=O)[C@H](Cc1c[nH]cn1)NC(=O)[C@@H](C)NC(=O)[C@H](Cc1ccc(O)cc1)NC(=O)[C@H](CCCNC(=N)N)NC(=O)[C@@H]1CCCN1C(=O)[C@H](CCCNC(=N)N)NC(=O)[C@@H]1CCC(=O)N1)C(=O)N[C@H](C)C(=O)N[C@H](Cc1ccccc1)C(=O)O) [pE-R-P-R-Y-a-H-K-G-P-nle-a-f-OH]
not met

Try this binder too: [pGlu]RPRLA[dH]KGP[dNle][dA][dF]-OH [pE-R-P-R-L-A-h-K-G-P-nle-a-f-OH]
met
